# System: HeLa
# test.method.notes: Cytotoxicity against human HeLa cells assessed as reduction in cell viability at 100 uM measured after 15 hrs hrs by MTT assay
# Format: cell-based
readout: Activity

molecule | result
O=C(O[C@@H]1C[Se][Se]C[C@H]1O)c1ccc2ccccc2c1 (racemic) | Toxic
CCCCCCCC(=O)O[C@@H]1C[Se][Se]C[C@H]1O (racemic) | Non-Toxic
O=C(O[C@@H]1C[Se][Se]C[C@H]1O)c1ccccc1 (racemic) | Toxic
CCC(=O)O[C@@H]1C[Se][Se]C[C@H]1O (racemic) | Toxic
CCCCCCCCCCCC(=O)O[C@@H]1C[Se][Se]C[C@H]1O (racemic) | Non-Toxic
